Test system: dogs
Method summary: animal or person
Format: in vivo
Condition set: dog; at 80-85% neuromuscular blocking dose
We use 30% as the dividing line for ΔH (change in heart rate): on or above the line is Met, below is Not met.

**Q:** Kindly determine if ΔH (change in heart rate) recorded for CC(=O)Oc1ccc(C[N+]2(C)[C@@H]3CC[C@H]2C[C@@H](OC(=O)C2CCC2C(=O)O[C@H]2C[C@H]4CC[C@@H](C2)[N+]4(C)Cc2ccc(OC(C)=O)c(OC(C)=O)c2)C3)cc1OC(C)=O.[Br-].[Br-] (some centres unmarked) is above or exactly 30%.
**A:** Not met

**Q:** Kindly determine if ΔH (change in heart rate) recorded for COc1cc(C[N+]2(C)[C@@H]3CC[C@H]2C[C@@H](OC(=O)C2CCC2C(=O)O[C@H]2C[C@H]4CC[C@@H](C2)[N+]4(C)Cc2ccc(OC(C)=O)c(OC)c2)C3)ccc1OC(C)=O.[Br-].[Br-] (some centres unmarked) is above or exactly 30%.
**A:** Met

**Q:** Kindly determine if ΔH (change in heart rate) recorded for CC(=O)Oc1ccc(C[N+]2(C)[C@@H]3CC[C@H]2C[C@@H](OC(=O)CCCC(=O)O[C@H]2C[C@H]4CC[C@@H](C2)[N+]4(C)Cc2ccc(OC(C)=O)c(OC(C)=O)c2)C3)cc1OC(C)=O.[Br-].[Br-] (some centres unmarked) is above or exactly 30%.
**A:** Not met

**Q:** Kindly determine if ΔH (change in heart rate) recorded for COc1cc(C[N+]2(C)[C@@H]3CC[C@H]2C[C@@H](OC(=O)C2CCCC(C(=O)O[C@H]4C[C@H]5CC[C@@H](C4)[N+]5(C)Cc4ccc(OC(C)=O)c(OC)c4)C2)C3)ccc1OC(C)=O.[Br-].[Br-] (some centres unmarked) is above or exactly 30%.
**A:** Met

* * *

Assignment: determine reported ΔBP (change in arterial blood pressure) for the given compounds.
Tested on: anesthetized rats (evoked responses of anterior tibial muscle)
Method summary: In vivo neuromuscular block and cardiovascular side effects, anesthetized rat (Example 8, Table 3)
Condition set: rat; at 80-85% neuromuscular blocking dose
Experimental: The neuromuscular blocking activity and other effects (e.g. cardiovascular side effects) of selected agents were investigated on several different experimental animals. […] a) Adult, male albino rats were anesthetized with pentobarbital injected intraperitoneally. […] The intensity, onset, and duration of neuromuscular block and its type were determined with each agent. Through administering several doses, the doses corresponding to 50%, 80% and 90% neuromuscular block were determined. […]
Please answer using the number first and the unit second.

**Q:** Any idea what ΔBP (change in arterial blood pressure) was measured for C[N+]1(Cc2ccccc2Br)[C@@H]2CC[C@H]1C[C@@H](OC(=O)CCCC(=O)O[C@H]1C[C@H]3CC[C@@H](C1)[N+]3(C)Cc1ccccc1Br)C2.[Br-].[Br-] (stereo partly drawn) [reference compound] ?
**A:** −9%

**Q:** Any idea what ΔBP (change in arterial blood pressure) was measured for CC(=O)Oc1ccc(C[N+]2(C)[C@@H]3CC[C@H]2C[C@@H](OC(=O)C2CCC2C(=O)O[C@H]2C[C@H]4CC[C@@H](C2)[N+]4(C)Cc2ccc(OC(C)=O)c(OC(C)=O)c2)C3)cc1OC(C)=O.[Br-].[Br-] (stereo partly drawn) ?
**A:** 0%

**Q:** Any idea what ΔBP (change in arterial blood pressure) was measured for COc1cc(C[N+]2(C)[C@@H]3CC[C@H]2C[C@@H](OC(=O)C2CCCC(C(=O)O[C@H]4C[C@H]5CC[C@@H](C4)[N+]5(C)Cc4ccc(OC(C)=O)c(OC)c4)C2)C3)ccc1OC(C)=O.[Br-].[Br-] (stereo partly drawn) ?
**A:** 0%
